READOUT: melting point

Query: Give the measured melting point of CC(C)c1cccc(C(C)C)c1N1Cc2ccccc2C1 .
Result: 130.9 to 132 °C

Query: And what about the compound Cc1ccc2c(c1)C(=O)N(c1c(C(C)C)cccc1C(C)C)C2=O ?
Result: 162.9 to 163.2 °C

Query: And what about the compound CCCCCCOc1ccc2c(c1)C(=O)N(c1c(C(C)C)cccc1C(C)C)C2=O ?
Result: 117 to 118 °C

Query: And what about the compound C[C@@H](c1ccccc1)N1C(=O)c2cccc([N+](=O)[O-])c2C1=O ?
Result: 115 to 117 °C
